molecular target: T1, recombinant human LRRC33-proTGFβ1 complex (Homo sapiens, UniProt P01137); test: Octet (Biolayer Interferometry) in vitro kinetic binding; conditions: in M
T1 construct: made in house
T1 sequence (P01137 30-390): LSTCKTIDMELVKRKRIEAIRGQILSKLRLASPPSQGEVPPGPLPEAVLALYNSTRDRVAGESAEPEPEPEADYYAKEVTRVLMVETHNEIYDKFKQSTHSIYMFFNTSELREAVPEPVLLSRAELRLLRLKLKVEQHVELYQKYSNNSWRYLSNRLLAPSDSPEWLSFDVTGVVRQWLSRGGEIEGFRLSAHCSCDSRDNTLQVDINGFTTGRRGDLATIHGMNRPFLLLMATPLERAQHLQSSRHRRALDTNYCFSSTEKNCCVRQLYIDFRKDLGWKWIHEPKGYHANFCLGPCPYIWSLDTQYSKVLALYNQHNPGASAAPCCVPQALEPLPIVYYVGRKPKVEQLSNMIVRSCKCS
T1 sequence (Q86YC3 19-650 partner limits assumed): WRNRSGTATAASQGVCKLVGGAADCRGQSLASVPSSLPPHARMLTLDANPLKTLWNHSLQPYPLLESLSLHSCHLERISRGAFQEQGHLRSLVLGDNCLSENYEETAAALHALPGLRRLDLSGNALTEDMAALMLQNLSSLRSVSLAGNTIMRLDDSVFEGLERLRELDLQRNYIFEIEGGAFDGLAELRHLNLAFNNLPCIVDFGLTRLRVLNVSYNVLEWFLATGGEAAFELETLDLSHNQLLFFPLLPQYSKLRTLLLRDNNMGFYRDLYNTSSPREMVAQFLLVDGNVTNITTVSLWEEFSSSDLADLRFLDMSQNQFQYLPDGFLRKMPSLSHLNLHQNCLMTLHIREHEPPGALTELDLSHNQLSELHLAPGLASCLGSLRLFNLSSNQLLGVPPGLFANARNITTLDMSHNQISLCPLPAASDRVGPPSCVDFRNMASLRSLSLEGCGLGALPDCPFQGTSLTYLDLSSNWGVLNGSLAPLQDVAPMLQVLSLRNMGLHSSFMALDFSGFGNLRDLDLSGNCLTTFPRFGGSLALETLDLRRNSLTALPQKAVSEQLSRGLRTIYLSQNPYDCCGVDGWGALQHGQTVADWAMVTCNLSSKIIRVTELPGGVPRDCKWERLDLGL
metric-name: (F) hLRRC33, Cell-associated proTGFb1 (KD)
Answer with the value's number alone.

INSERT INTO results (molecule, quantitative_readout) VALUES
  ('Ab32: monoclonal antibody; VH SEQ ID NO: 140, VL SEQ ID NO: 15 (antibody, V domains shown) VH: EVQLVESGGGLVQPGGSLRLSCAASGFTFSSFSMNWVRQAPGKGLEWVSYISPSADTIYYADSVKGRFTISRDNAKNTLYLQMNSLRAEDTAVYYCARGVWDMGDMLDPWGQGTLVTVSS VL: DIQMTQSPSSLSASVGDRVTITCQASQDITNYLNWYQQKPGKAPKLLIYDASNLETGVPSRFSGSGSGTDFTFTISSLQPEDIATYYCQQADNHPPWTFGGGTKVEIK', '6.98E−10');

GET /values?readout=(F) hLRRC33, Cell-associated proTGFb1 (KD)&item= Ab19: monoclonal antibody; VH SEQ ID NO: 250, VL SEQ ID NO: 241 (antibody, V domains shown) VH: QVQLVESGGGVVQPGRSLRLSCAASGFTFSSFAMTWVRQAPGKGLEWVSAISGSGAATYFADSVKGRFTISRDNSKNTLYLQMNSLRAEDTAVYYCARVSSGHWDFDEWGQGTLVTVSS VL: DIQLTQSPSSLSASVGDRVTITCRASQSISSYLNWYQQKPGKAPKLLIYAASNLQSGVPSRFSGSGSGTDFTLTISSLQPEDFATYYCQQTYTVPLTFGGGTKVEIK
6.92E−10

From: patent US11130803B2
